Target Or System: monoclonal antibody DD-1
Protocol Text: Competition ELISA with monoclonal antibody DD-1
Type: binding, Biozzi mice
Experimental Parameters: competitor vs monoclonal antibody DD-1; plate coated with A-triCDD-RSA
Catalogue of I50 (inhibits antibody binding by 50%) readings, one per entry.
Readout Type: I50 (inhibits antibody binding by 50%)

>>> print(df.to_string())
                                   compound                            readout_type  recorded_measurement
0  O=[N+]([O-])c1c(Cl)ccc2c1Oc1cc(Cl)c(Cl)cc1O2  I50 (inhibits antibody binding by 50%)                  0 ng
1  O=S1OCC2C(CO1)C1(Cl)C(Cl)=C(Cl)C2(Cl)C1(Cl)Cl (centres unmarked) [Endosulfan]  I50 (inhibits antibody binding by 50%)             > 2000 ng
2  Clc1c(Cl)c(Cl)c2c(oc3c(Cl)c(Cl)c(Cl)c(Cl)c32)c1Cl  I50 (inhibits antibody binding by 50%)              > 200 ng
3           Clc1cc(Cl)c(-c2ccccc2Cl)c(Cl)c1  I50 (inhibits antibody binding by 50%)              > 200 ng
4    Clc1ccc(C(c2ccc(Cl)cc2)C(Cl)(Cl)Cl)cc1  I50 (inhibits antibody binding by 50%)             > 2000 ng

---

Catalogue of I50 (inhibits antibody binding by 50%) readings, one per entry.
Target Or System: monoclonal antibody DD-4
Protocol Text: Competition ELISA with monoclonal antibody DD-4
Format: binding, BALB/c mice
Experimental Parameters: competitor vs monoclonal antibody DD-4; plate coated with A-triCDD-RSA
Readout Type: I50 (inhibits antibody binding by 50%) (ng)

In [3]: df
Out[3]:
                                   compound  relation_sign  recorded_measurement
0           Clc1cc2oc3cc(Cl)c(Cl)cc3c2cc1Cl              =                     5
1        Brc1cc2c(cc1Br)Oc1cc(Br)c(Br)cc1O2              =                     1
2           Clc1ccc(-c2ccc(Cl)c(Cl)c2)cc1Cl              >                   200
3   Clc1ccc2oc3c(Cl)c(Cl)c(Cl)c(Cl)c3c2c1Cl              >                   200
4  ClC1C(Cl)C(Cl)C(Cl)C(Cl)C1Cl (centres unmarked)              >                  2000

---

Target Or System: monoclonal antibody DD-4
Protocol Text: Competition ELISA with monoclonal antibody DD-4
Format: binding, BALB/c mice
Experimental Parameters: competitor vs monoclonal antibody DD-4; plate coated with A-triCDD-RSA
Readout Type: I50 (inhibits antibody binding by 50%)

In [3]: df
Out[3]:
                                   compound  recorded_measurement
0  O=S1OCC2C(CO1)C1(Cl)C(Cl)=C(Cl)C2(Cl)C1(Cl)Cl (centres unmarked) [Endosulfan]             > 2000 ng
1  Clc1ccc(Cl)c(-c2c(Cl)c(Cl)c(Cl)c(Cl)c2Cl)c1              > 200 ng
2  Clc1ccc(-c2c(Cl)cc(Cl)c(Cl)c2Cl)c(Cl)c1Cl              > 200 ng
3                           Oc1ccc(Cl)cc1Cl             > 2000 ng
4    Clc1ccc(C(c2ccc(Cl)cc2)C(Cl)(Cl)Cl)cc1             > 2000 ng
5        Clc1cc2c(cc1Cl)Oc1cc(Cl)c(Cl)cc1O2                  5 ng
6             O=[N+]([O-])c1cc(Cl)cc(Cl)c1O             > 2000 ng
7         Clc1ccccc1-c1cc(Cl)c(Cl)c(Cl)c1Cl              > 200 ng

Cited source: patent US4798807A
